system-under-test: Induced myeloid leukemia cell differentiation protein Mcl-1 (Homo sapiens) (UniProt Q07820)
Sequence (Q07820 whole entry, looked up): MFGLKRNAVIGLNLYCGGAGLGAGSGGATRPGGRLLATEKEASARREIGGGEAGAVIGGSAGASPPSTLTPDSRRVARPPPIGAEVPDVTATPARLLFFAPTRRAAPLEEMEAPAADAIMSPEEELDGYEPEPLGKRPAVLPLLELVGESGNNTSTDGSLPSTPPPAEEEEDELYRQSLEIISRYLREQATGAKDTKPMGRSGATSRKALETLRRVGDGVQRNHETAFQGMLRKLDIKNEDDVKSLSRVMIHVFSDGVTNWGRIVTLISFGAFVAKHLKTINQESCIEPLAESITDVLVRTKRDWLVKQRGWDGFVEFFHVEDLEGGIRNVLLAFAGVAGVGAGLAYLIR
experiment-notes: Mcl-1/Bim interaction disruptors – biochemical, bead-based flow cytometry, multiplex, primary screen (AID 1009);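 further: 0% = no compound tracer wells and 100% = peptide blocker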
condition-context: Bim peptide-Mcl-1 binding, at 10 µM, hits give high values
The campaign covered roughly 190,000 compounds. About 200 (0.11%) were called active. For the sample, actives were picked, then their nearest neighbours and some compounds at random.
measured-property: inhibition (%)
Answers are plain numbers, in %.

# count of solved cases: 5
[[record]]
smi = "O=C(Nc1ccc2oc(-c3ccccc3F)nc2c1)c1ccco1"
measured_result = -3

[[record]]
smi = "CCCCN(CC)CCNC(=O)CCNC(=O)Cn1ccc2ccccc2c1=O"
measured_result = -4

[[record]]
smi = "Cc1nnsc1C(=O)N/N=C/c1cccc(C(F)(F)F)c1"
measured_result = -2

[[record]]
smi = "O=[N+]([O-])c1ccc(F)cc1Oc1nc(-c2cccnc2)nc2ccccc12"
measured_result = 4

[[record]]
smi = "COc1cccc(NC(=S)C(C#N)=C2N(C)c3ccccc3N2C)c1"
measured_result = -1


// recorded inhibition for Cn1c(-c2sccc2OCc2cccc(C(F)(F)F)c2)n[nH]c1=S : -4
